target.under.test: IRAK4 (Homo sapiens, UniProt Q9NWZ3)
Construct: expressed in transfected cells; host or cells: K562 IRAK4-HiBiT cells
Sequence (Q9NWZ3 1-460): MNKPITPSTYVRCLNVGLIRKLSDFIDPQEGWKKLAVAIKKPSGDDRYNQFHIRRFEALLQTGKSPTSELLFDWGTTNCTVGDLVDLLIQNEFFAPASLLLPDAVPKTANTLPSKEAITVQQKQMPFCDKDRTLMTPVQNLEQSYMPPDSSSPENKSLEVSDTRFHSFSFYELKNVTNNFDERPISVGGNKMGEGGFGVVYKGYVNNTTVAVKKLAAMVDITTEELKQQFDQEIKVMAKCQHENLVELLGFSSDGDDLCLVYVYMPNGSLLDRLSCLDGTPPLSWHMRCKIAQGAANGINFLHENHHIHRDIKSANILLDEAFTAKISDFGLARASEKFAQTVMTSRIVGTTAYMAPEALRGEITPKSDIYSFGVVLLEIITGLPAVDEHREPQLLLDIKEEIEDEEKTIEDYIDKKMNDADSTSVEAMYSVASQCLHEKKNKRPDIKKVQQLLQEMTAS
assay.details: Target protein degradation in K562 IRAK4-HiBiT cells (Nano-Glo HiBiT)
Format: cell-based
reported.conditions: 16 to 18 hours
Where a name gives a salt, the structure may show the parent alone.
measure: DC50 (nM)

Solved entries:
O=C1CCC(c2noc3cc(NC(=O)CN4CCN(C[C@H]5CC[C@H](n6cc(NC(=O)c7coc(-c8ccnc(NCC9CC9)c8)n7)c(C(F)F)n6)CC5)CC4)ccc23)C(=O)N1 (stereo partly shown) [Hydrochloride of WX025]    2.53
O=C1CCC(c2coc3ccc4c(NC(=O)CN5CCN(C[C@H]6CC[C@H](n7cc(NC(=O)c8coc(-c9ccnc(NCC%10CC%10)c9)n8)c(C(F)F)n7)CC6)CC5)cccc4c23)C(=O)N1 (stereo partly shown) [Trifluoroacetate of WX011]    9.6
CC(C)(O)c1cc2nc([C@H]3CC[C@H](CN4CCC(C(F)(F)C(=O)Nc5cccc6c5ccc5onc(C7CCC(=O)NC7=O)c56)CC4)CC3)sc2cc1NC(=O)c1cccc(C(F)(F)F)n1 (stereo partly shown) [Formate of WX019]    15.1

a: CC(C)(O)c1cc2nc(C3CCC(CN4CCN(CC(=O)Nc5cccc6c5ccc5onc(C7CCC(=O)NC7=O)c56)CC4)CC3)sc2cc1NC(=O)c1cccc(C(F)(F)F)n1 (stereo not shown) [Formate of WX017]
b: CC(C)(O)c1cc2nc([C@H]3CC[C@H](CN4CCC(C(F)(F)C(=O)Nc5cccc6c(C7CCC(=O)NC7=O)noc56)CC4)CC3)sc2cc1NC(=O)c1cccc(C(F)(F)F)n1 (stereo partly shown) [Formate of WX023]
c: O=C1CCC(c2coc3ccc4cc(NC(=O)CN5CCN(C[C@H]6CC[C@H](n7cc(NC(=O)c8coc(-c9ccnc(NCC%10CC%10)c9)n8)c(C(F)F)n7)CC6)CC5)ccc4c23)C(=O)N1 (stereo partly shown) [WX007]
Order these by DC50, descending, and give the full ranking. Rank them, then answer with their labels in that order. c, b, a
(c: 35.1 nM, b: 7.16 nM, a: 4 nM)

P: CC(C)(O)c1cc2nc([C@H]3CC[C@H](CN4CCN(CC(=O)Nc5cccc6c(C7CCC(=O)NC7=O)noc56)CC4)CC3)sc2cc1NC(=O)c1cccc(C(F)(F)F)n1 (stereo partly shown) [Formate of WX029]
Q: O=C1CCC(c2coc3ccc(NC(=O)CN4CCN(C[C@H]5CC[C@H](n6cc(NC(=O)c7coc(-c8ccnc(NCC9CC9)c8)n7)c(C(F)F)n6)CC5)CC4)cc23)C(=O)N1 (stereo partly shown) [Hydrochloride of WX001]
R: O=C1CCC(c2noc3ccc4cc(NC(=O)CN5CCN(CC6CCC(n7cc(NC(=O)c8coc(-c9ccnc(NCC%10CC%10)c9)n8)c(C(F)F)n7)CC6)CC5)ccc4c23)C(=O)N1 (stereo not shown) [Hydrochloride of WX015]
Ascending sort, DC50. Rank them, then answer with their labels in that order. P, R, Q
(P: 4.26 nM, R: 47.1 nM, Q: 76.4 nM)
